Papp at 18 hours, 50 µM: recorded values
test: PAMPA (parallel artificial membrane permeability assay); format: in vitro ADME; details: PAMPA; membrane permeation rate (Pe); 50 mM MOPSO buffer pH 6.5 with 5.0% glycocholic acid, 37° C., 18 hours; read-out: iPAMPA Pe
Starred links: 1 amine or outer side, 2 acyl side, 3 side chain; linkers in the order of their positions; H or OH if unused. Positions of bridges follow the written chain, without caps; N, C: chain ends. Non-standard residues stand in square brackets, D forms with d. Residues, ends and D or L forms follow the SMILES beside them. *: point of attachment. Phe(3-(CH2)4CO) = O=C([C@H](Cc1cccc(CCCCC(=O)[*:3])c1)N[*:1])[*:2]; NMePhe(3-Cl) = CN[C@@H](Cc1cccc(Cl)c1)C(=O)O; NMeF = CN[C@@H](Cc1ccccc1)C(=O)O; NMeI = CC[C@H](C)[C@H](NC)C(=O)O; NMeL = CN[C@@H](CC(C)C)C(=O)O; NMeV = CN[C@H](C(=O)O)C(C)C; NMeA = CN[C@@H](C)C(=O)O; Piperidide = C1CCN(*)CC1; Sar = CNCC(=O)O; tBu = CC(C)(C)*
ENDPOINT LABEL: Papp at 18 hours, 50 µM (×10⁻⁶ cm/s)

>>> recorded_result("CC(C)C[C@@H]1NC(=O)[C@H](Cc2c[nH]cn2)NC(=O)[C@H](Cc2ccccc2)N(C)C(=O)[C@H](CC(C)C)NC(=O)[C@H](CC(C)C)N(C)C(=O)[C@H](Cc2ccccc2)NC(=O)[C@H](CC(C)C)N(C)C(=O)[C@H](CC(C)C)N(C)C(=O)[C@H](Cc2ccccc2)NC(=O)CN(C)C(=O)C[C@@H](C(=O)N(C)[C@@H](Cc2ccccc2)C(=O)N[C@@H](C)C(=O)N2CCCCC2)NC1=O [DP-592] ([Sar]F[NMeL][NMeL]F[NMeL]L[NMeF]HLD[NMeF]A-Piperidide; lactam N-11)")
0.18
>>> recorded_result("CC(C)C[C@@H]1NC(=O)CN(C)C(=O)[C@H](CC(C)C)NC(=O)[C@H](C)NC(=O)[C@H](CC(C)C)NC(=O)[C@H](CC(C)C)NC(=O)[C@H](C)N(C)C(=O)C[C@@H](C(=O)N2CCCCC2)NC(=O)[C@H]([C@@H](C)O)NC(=O)[C@H](Cc2ccccc2)NC(=O)[C@H](CC(C)C)NC1=O [DP-420] ([NMeA]LLAL[Sar]LLFTD-Piperidide; lactam N-11)")
10
>>> recorded_result("CC(C)C[C@H]1C(=O)N(C)[C@@H](C)C(=O)N[C@@H]([C@@H](C)O)C(=O)N(C)[C@@H](C)C(=O)N(C)[C@@H](Cc2ccccc2)C(=O)N(C)CC(=O)N[C@H](C(=O)N(C)[C@@H](Cc2ccccc2)C(=O)N[C@@H](C)C(=O)N2CCCCC2)CC(=O)N(C)[C@@H](C)C(=O)N(C)[C@@H](C)C(=O)N[C@@H](C)C(=O)N[C@@H](Cc2ccccc2)C(=O)N1C [DP-345] ([NMeA][NMeA]AF[NMeL][NMeA]T[NMeA][NMeF][Sar]D[NMeF]A-Piperidide; lactam N-11)")
2.8
>>> recorded_result("CC(C)C[C@H]1C(=O)N[C@H](C(=O)N2CCCCC2)CC(=O)N[C@H](C)C(=O)N(C)[C@@H](CC(C)C)C(=O)N(C)[C@@H](Cc2ccccc2)C(=O)N(C)[C@@H](CC(C)C)C(=O)N[C@@H]([C@@H](C)O)C(=O)N1C [DP-740] ([dA][NMeL][NMeF][NMeL]T[NMeL]D-Piperidide; lactam N-7)")
31
>>> recorded_result("CC[C@H](C)[C@H](NC(=O)[C@H](CC(C)C)N(C)C(=O)CN(C)C(=O)[C@H](C)N(C)C(=O)[C@H](Cc1ccccc1)N(C)C(=O)[C@@H]1CC(=O)N[C@H](C(C)C)C(=O)N[C@@H](C(C)C)C(=O)N[C@@H]([C@@H](C)O)C(=O)N[C@@H](CC(C)C)C(=O)N[C@@H](Cc2ccccc2)C(=O)N(C)[C@@H](CC(C)C)C(=O)N(C)[C@@H](Cc2cccc(Cl)c2)C(=O)N1)C(=O)N1CCCCC1 [DP-924] ([dV]VTLF[NMeL][NMePhe(3-Cl)]D[NMeF][NMeA][Sar][NMeL]I-Piperidide; lactam N-8)")
0.1
>>> recorded_result("CC(C)C[C@H]1C(=O)N[C@@H](COC(C)(C)C)C(=O)N[C@H](C(=O)N2CCCCC2)CC(=O)N[C@H](C(C)C)C(=O)N(C)[C@@H](Cc2ccccc2)C(=O)N(C)[C@@H](C)C(=O)N(C)[C@@H](CC(C)C)C(=O)N[C@@H]([C@@H](C)O)C(=O)N(C)[C@@H](C)C(=O)N1C [DP-266] ([dV][NMeF][NMeA][NMeL]T[NMeA][NMeL]S(tBu)D-Piperidide; lactam N-9)")
43
>>> recorded_result("CC[C@H](C)[C@H]1C(=O)N(C)[C@@H](C)C(=O)N[C@@H](Cc2ccccc2)C(=O)N[C@@H]([C@@H](C)O)C(=O)N[C@@H](Cc2ccccc2)C(=O)N(C)[C@@H](CC(C)C)C(=O)N2CCC[C@H]2C(=O)N[C@H](C(=O)N2CCCCC2)CC(=O)N[C@@H](C)C(=O)N[C@@H](CC(C)C)C(=O)N(C)CC(=O)N[C@@H](CC(C)C)C(=O)N1C [DP-7] (AL[Sar]L[NMeI][NMeA]FTF[NMeL]PD-Piperidide; lactam N-12)")
10
>>> recorded_result("CC[C@H](C)[C@@H]1NC(=O)[C@H](CC(C)C)N(C)C(=O)[C@H](C)NC(=O)[C@H](C)N(C)C(=O)C[C@@H](C(=O)N2CCCCC2)NC(=O)[C@H](C(C)C)N(C)C(=O)[C@H](Cc2ccccc2)N(C)C(=O)[C@H]([C@@H](C)O)NC(=O)[C@H](CC(C)C)N(C)C(=O)[C@H](Cc2ccccc2)NC1=O [DP-173] ([NMeA]A[NMeL]IF[NMeL]T[NMeF][NMeV]D-Piperidide; lactam N-10)")
58
>>> recorded_result("CC[C@H](C)[C@@H]1NC(=O)[C@H](CC(C)C)NC(=O)[C@H](C)N(C)C(=O)C[C@@H](C(=O)N2CCCCC2)NC(=O)[C@H](CC(C)C)NC(=O)[C@H](Cc2ccccc2)NC(=O)[C@H](Cc2ccccc2)N(C)C(=O)[C@H](CC(C)C)NC(=O)[C@H]([C@@H](C)O)NC(=O)[C@H](Cc2ccccc2)NC1=O [DP-331] ([NMeA]LIFTL[NMeF]FLD-Piperidide; lactam N-10)")
0.24
>>> recorded_result("CC[C@H](C)[C@@H]1NC(=O)CCCCc2cccc(c2)C[C@@H](C(=O)N2CCCCC2)NC(=O)[C@H](Cc2ccccc2)N(C)C(=O)[C@H](CC(C)C)N(C)C(=O)CN(C)C(=O)[C@H]([C@@H](C)O)NC(=O)[C@H](C)N(C)C(=O)[C@H](C(C)C)N(C)C(=O)[C@H](C)NC(=O)[C@H](CC(C)C)N(C)C(=O)[C@H](Cc2ccccc2)N(C)C1=O [DP-886] (I[NMeF][NMeL]A[NMeV][NMeA]T[Sar][NMeL][NMeF][Phe(3-(CH2)4CO)]-Piperidide; lactam N-11)")
22

###

experiment: Metabolic stability in human hepatic microsome; type: in vitro ADME; conditions: microsomes, pH 7.4; human hepatic microsome, NADPH(+); read-out: CL NADPH(+)
Starred links: 1 amine or outer side, 2 acyl side, 3 side chain; linkers in the order of their positions; H or OH if unused. Positions of bridges follow the written chain, without caps; N, C: chain ends. Non-standard residues stand in square brackets, D forms with d. Residues, ends and D or L forms follow the SMILES beside them. *: point of attachment. NMeF = CN[C@@H](Cc1ccccc1)C(=O)O; NMeI = CC[C@H](C)[C@H](NC)C(=O)O; NMeβAla = CN(CCC(=O)[*:2])[*:1]; NMeL = CN[C@@H](CC(C)C)C(=O)O; NMeA = CN[C@@H](C)C(=O)O; Piperidide = C1CCN(*)CC1; NPrGly = CCCNCC(=O)O; Sar = CNCC(=O)O; tBu = CC(C)(C)*
ENDPOINT LABEL: microsomal CLint at 1 uM (µL/min/mg)

>>> recorded_result("CCCN1CC(=O)N(C)[C@@H](CC(C)C)C(=O)N[C@@H]([C@@H](C)O)C(=O)N(C)[C@@H](Cc2ccccc2)C(=O)N(C)[C@@H](CC(C)C)C(=O)N(C)[C@@H]([C@@H](C)CC)C(=O)N(C)[C@@H](C)C(=O)N[C@H](C(=O)N2CCCCC2)CC(=O)N(C)CC(=O)N[C@@H](COC(C)(C)C)C1=O [DP-543] ([Sar]S(tBu)[NPrGly][NMeL]T[NMeF][NMeL][NMeI][NMeA]D-Piperidide; lactam N-10)")
23
>>> recorded_result("CC[C@H](C)[C@H]1C(=O)N[C@@H](Cc2ccccc2)C(=O)N[C@@H]([C@@H](C)O)C(=O)N2CCC[C@H]2C(=O)N[C@@H](Cc2ccccc2)C(=O)N[C@H](C(=O)N2CCCCC2)CC(=O)N(C)CCC(=O)N(C)[C@@H](CC(C)C)C(=O)N(C)[C@@H](CC(C)C)C(=O)N[C@@H](CC(C)C)C(=O)NCC(=O)N1C [DP-239] ([NMeβAla][NMeL][NMeL]LG[NMeI]FTPFD-Piperidide; lactam N-11)")
109
>>> recorded_result("CC(C)C[C@@H]1NC(=O)[C@H](Cc2ccccc2)N(C)C(=O)[C@H](C)N(C)C(=O)C[C@@H](C(=O)N2CCCCC2)NC(=O)[C@H]([C@@H](C)O)NC(=O)[C@H](CC(C)C)N(C)C(=O)[C@H](Cc2ccccc2)NC(=O)[C@H](CC(C)C)N(C)C(=O)[C@H](CC(C)C)N(C)C1=O [DP-494] ([NMeA][NMeF]L[NMeL][NMeL]F[NMeL]TD-Piperidide; lactam N-9)")
330
